Ref: patent US8299106B2

tested on: MDA-MB-231; assay: Colony formation assay (CFA), MDA-MB-231; format: cell-based; conditions: Homo sapiens, MDA-MB-231, treated 6 or 24 hours, grown 7-10 days

molecule: Cc1[nH]c(/C=C2\C(=O)Nc3ccc(-c4csc(-c5ccccc5)n4)cc32)c(C)c1C(=O)N1CCN(C)CC1 [Compound 10-1]
IC50: 0.8 to 1.5 µM
//
molecule: Cc1nc(-c2ccc3c(c2)/C(=C/c2[nH]c(C)c(C(=O)N4CCN(C)CC4)c2C)C(=O)N3)cs1 [Compound 7-1]
IC50: 6 to 10 µM
//
molecule: Cc1[nH]c(/C=C2\C(=O)Nc3ccc(-c4csc(-c5cccnc5)n4)cc32)c(C)c1C(=O)N1CCN(C)CC1 [Compound 13-1]
IC50: 0.1 to 0.25 µM

###

test system: HT29; assay: Colony formation assay (CFA), HT29; assay type: cell-based; conditions: treated 6 or 24 hours, grown 7-10 days

smilesRepresentation: Cc1nc(-c2ccc3c(c2)CC(=O)N3)cs1
testedTarget: HT29
IC50: 50 to 300 µM
